Tested on: Taenia solium crude mix
Test: Competitor assay of vehicles against high Vmax substrate cocktails (Step III), crude mix
Format: biochemical
Conditions: V = P * M
Residues, ends and D or L forms follow the SMILES beside them. *: point of attachment. AFC = O=c1cc(C(F)(F)F)c2ccc(N*)cc2o1; Cbz = O=C(OCc1ccccc1)*; Boc = CC(C)(C)OC(=O)*
Kindly state V Value for each of the entries shown.
Output spec: single numeric token, no unit.

Input: Return reported V Value. Input compound: CC(C)[C@H](NC(=O)OC(C)(C)C)C(=O)N1CCC[C@H]1C(=O)N[C@@H](CCCNC(=N)N)C(=O)Nc1ccc2c(C(F)(F)F)cc(=O)oc2c1 [B-VPR-AFC, Boc-Val-Pro-Arg-AFC] (Boc-Val-Pro-Arg-{AFC})
Output: 0.12

Input: Look up and report measured V Value for this entry: N=C(N)NCCC[C@H](NC(=O)OCc1ccccc1)C(=O)N[C@@H](CCCNC(=N)N)C(=O)Nc1ccc2c(C(F)(F)F)cc(=O)oc2c1 [Z-RR-AFC] (Cbz-Arg-Arg-{AFC})
Output: 0.09

Input: Report V Value, nothing else, for this compound: CC(C)C[C@H](NC(=O)OCc1ccccc1)C(=O)N[C@@H](CC(C)C)C(=O)N[C@@H](Cc1ccc(O)cc1)C(=O)Nc1ccc2c(C(F)(F)F)cc(=O)oc2c1 [Z-LLY-AFC, Z-Leu-Leu-Tyr-AFC] (Cbz-Leu-Leu-Tyr-{AFC})
Output: 0.55

Input: Tell us which V Value value is on record for CC(C)C[C@H](NC(=O)OCc1ccccc1)C(=O)N[C@@H](CC(C)C)C(=O)N[C@@H](CC(C)C)C(=O)Nc1ccc2c(C(F)(F)F)cc(=O)oc2c1 [Z-LLL-AFC, Z-Leu-Leu-Leu-AFC] (Cbz-Leu-Leu-Leu-{AFC})
Output: 0.611
